Values compiled from patent US20200247855A1.

This listing pairs binders with measured pKd.
test_system: CXCL10_HUMAN (human, UniProt P02778 22-98)
Sequence (P02778 22-98): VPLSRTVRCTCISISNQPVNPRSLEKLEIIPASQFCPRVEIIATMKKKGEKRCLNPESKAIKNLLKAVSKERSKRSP
experiment_description: BLI
Please report pKd as the negative decimal logarithm of the molar concentration, giving only the number.

Consider the reported pKd for these binders:
binder | pKd
P1100_IXORI (other) GSKGSSASQSSDNSVVAKFCDTNCTINEGGKWTECKGGCFCVHVGNETVGRCMKLDGDYDYPSPKPEE | 6.42
P1074_IXORI (other) GSKESSAHQSSDDSIKAEFCDAKCTMKTDGKWTQCHGGCFCVHVGNETEGRCMRLDGDYDYPSTQPEE | 7.39

Now, please, on to the next binder.
Data request: Would you kindly share the measured pKd for P1086_IXORI (other) GSKGQRASQVSETSITAEFCDTSCTQGTDKTWSGCSGDCFCVHVGNDTEGRCMRWDGDYPSAEEEE ?
Data returned: 7.73
